// data source = ChEMBL document CHEMBL1208782

Entries and their bioavailability
Assay: Oral bioavailability in db/db mouse at 5 mg/kg, po
Format: ADME, organism-based
Conditions: in vivo
The figure you give is taken to be in %; do not add the unit.

Reported bioavailability for `CC(C)c1onc(-c2c(Cl)cccc2Cl)c1COc1ccc(N(C)Cc2ccc(C(=O)O)cc2)c(C(F)(F)F)n1` was 16.2

Reported bioavailability for `CN(Cc1ccc(C(=O)O)cc1)c1ccc(OCc2c(-c3c(Cl)cccc3Cl)noc2C2CC2)nc1C(F)(F)F` was 16.1

Reported bioavailability for `CN(Cc1ccc(C(=O)NCCS(=O)(=O)O)cc1)c1ccc(OCc2c(-c3c(Cl)cccc3Cl)noc2C2CC2)nc1C(F)(F)F` was 5.8
